- Test system: HeLa cells
- assay_text: Cell cycle assay in HeLa cells
- Assay type: cell-based, human
- cond: HeLa cells, 150 nM oligomeric compound, 24 hours, relative to untreated control (UTC = 100)
In the oligonucleotide strings, read from the 5' end, every base follows the letter of its sugar. An asterisk marks phosphorothioate; unmarked linkages are phosphodiester. Other units and linkages are bracketed, terminal groups are in braces. A string of capitals states the bases alone. e = 2'-O-(2-methoxyethyl) (MOE); [5mC] = 5-methylcytosine; d = 2'-deoxy (DNA)
# maps each entry to its % cells aneuploid
result_type: % cells aneuploid (%)

[[record]]
substance = "328687 (eG*e[5mC]*eT*eT*e[5mC]*d[5mC]*d[5mC]*dA*dG*d[5mC]*dG*dG*d[5mC]*d[5mC]*dT*eA*eT*eA*eG*eT; antisense) [compound 328687]"
units_label = "%"
result_number = 149

[[record]]
substance = "327892 (antisense eA*e[5mC]*eT*eT*eT*e[5mC]*eG*eG*eT*eT*eA*eT*e[5mC]*eT*eA*eG*e[5mC]*eT*eT*eT*eA) [compound 327892]"
units_label = "%"
result_number = 80

[[record]]
substance = "327944 (antisense eA*eA*eA*eG*eT*eG*eT*e[5mC]*eA*eG*eA*eT*eA*e[5mC]*eG*eG*eT*eG*eT*eG*eG) [compound 327944]"
units_label = "%"
result_number = 50

[[record]]
substance = "341785 (antisense GGAGTGAAGACACGGAGCCAGA; all 2'-MOE, all phosphorothioate, methylation of C not given here) [compound 341785]"
units_label = "%"
result_number = 158

[[record]]
substance = "338797 (antisense CTGGGGAGGGGGTTAGCGTC; all 2'-MOE, all phosphorothioate, methylation of C not given here) [compound 338797]"
units_label = "%"
result_number = 193

[[record]]
substance = "328115 (antisense eA*eG*eA*eA*eG*eG*eT*eG*eG*eG*eG*eA*eG*e[5mC]*eA*eG*e[5mC]*eG*eT*e[5mC]*eA) [compound 328115]"
units_label = "%"
result_number = 59

[[record]]
substance = "328388 (eT*e[5mC]*e[5mC]*e[5mC]*eA*dT*dA*dG*d[5mC]*dA*dG*dG*dG*d[5mC]*dA*eG*eA*eG*e[5mC]*e[5mC]; antisense) [compound 328388]"
units_label = "%"
result_number = 85

[[record]]
substance = "327949 (antisense e[5mC]*eA*e[5mC]*eA*eA*eA*eT*eT*e[5mC]*eG*eG*eA*eT*e[5mC]*eT*eA*e[5mC]*eA*eG*eG*eG*eT*eA) [compound 327949]"
units_label = "%"
result_number = 68

[[record]]
substance = "327911 (antisense eG*e[5mC]*eT*eA*e[5mC]*e[5mC]*eT*eG*e[5mC]*eA*e[5mC]*eT*eG*eT*eA*eA*eG*e[5mC]*eA*e[5mC]*eT*eT*eT*eT) [compound 327911]"
units_label = "%"
result_number = 104

[[record]]
substance = "327889 (antisense eG*eT*eG*eG*eT*eA*eA*eT*e[5mC]*e[5mC]*e[5mC]*eT*eG*eG*e[5mC]*eA*eA*eT*eG*eT*eG*eA*eT) [compound 327889]"
units_label = "%"
result_number = 82

[[record]]
substance = "328749 (antisense e[5mC]*eA*eG*e[5mC]*e[5mC]*dT*dG*d[5mC]*d[5mC]*dA*d[5mC]*d[5mC]*dG*d[5mC]*d[5mC]*eG*e[5mC]*eT*eT*eT) [compound 328749]"
units_label = "%"
result_number = 138

